Biological target: T1, IFF05588
T1 chain: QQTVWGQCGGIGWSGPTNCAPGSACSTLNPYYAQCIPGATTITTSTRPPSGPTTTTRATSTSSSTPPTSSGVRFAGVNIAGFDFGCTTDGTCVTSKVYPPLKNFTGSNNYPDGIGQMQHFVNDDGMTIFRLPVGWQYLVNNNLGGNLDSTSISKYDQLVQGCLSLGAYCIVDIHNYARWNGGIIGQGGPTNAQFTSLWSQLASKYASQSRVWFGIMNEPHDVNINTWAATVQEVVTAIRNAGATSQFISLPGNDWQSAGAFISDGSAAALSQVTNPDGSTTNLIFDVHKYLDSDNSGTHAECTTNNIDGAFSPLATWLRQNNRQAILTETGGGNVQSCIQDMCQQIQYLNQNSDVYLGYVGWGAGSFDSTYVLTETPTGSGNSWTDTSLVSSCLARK
Measurement type: Relative late peak area (reverse phase chromatography, 24 h)
Lab note: jot the number down without any unit.

Record summary for IFF21359 (protein) TLDKPVIKPPFPNGGLGSLGPDLMSSLPIAAHTTTDWDADHLPRDCKTLAQGAGFSPLDVSAFDIHYDDCKAQPWVFCRHKDSPLSKTDMTELFGRLPVRMRQFIRHIIALPGQRSAGSAGDNIQMNGDCEITVFIHETGHSLDSHAFDPKLGVPFSNGKAWTDAYHKDTAVTDDYGRTSQQENFAQETVVSVYDKNVEGGIGKIQPNAQAIRNAYTTLETYIGNIIIPGGECTHRLENSPSVPKADSARTRLVARAEPVGEGLTRIEPVPFGPILSVRY : reported Relative late peak area (reverse phase chromatography, 24 h) = 0.68

Record summary for IFF21350 (protein) NLNKPVIQPNFPGNGLASLGQGILDHLAPTQSTWDDWGAGWIPQDCKSLAQGAGLSPNDIIPFNIHYADCAQTWTFCRHKNSPLSEVNIIDLFGRLPVRMRQFVRHLVFIPGNKSAGSNGDNVLMVGPVDITVFAHEIGHSLDSHAFDPSYGVPFSTGNVWVSNYNLDSAVPDPYAQSSQQENFAQHTVISIYDKAVPGGIGTIQPNWQAIFHQYATLEGYIGDIIIPGGTCTHRLTDSPPVTMASKRRALGPKPKVALSPEVEEIEAIPMKNTITMTSFDEAGKPNGSYVINL : reported Relative late peak area (reverse phase chromatography, 24 h) = 0.61

Record summary for IFF21335 (protein) TLDKPVIQPNFPGNGLASLGQGLLDNLAPTHSTWDDWGAGWIPQDCKTLVEGAGFSASDVIPFNIHYDDCAQTWTFCRHKDSPLSEVQILDLFGRLPVRMRSFVRHLVFIPGNKSAGSSGDNVLMTGPVDITVYAHEIGHSLDSHAFDPSYGVPFSTGNVWISNYNLDSAVTDPYAQTSQQENFAQETVVSLYDKVVPGGIGTIQSNWQAIFHQYATLEGYIGDVIIPGGTCTHRLTDSPAVPMSGSAKLRRGLGPKPHVALSPEVEEIEAIPMKSSITMTSFDEAGKPNGTYVINL : reported Relative late peak area (reverse phase chromatography, 24 h) = 0.66

Record summary for IFF21332 (protein) ALNKPIINPQFPNGGLGSLGPGLMQHLQPAKRTWDKWGPGWIPEDCKNLAKSNNFSPFDITPFNIHYEDCPDSWVFCRHKDSPLSETAMIDMFGRMPVKMRSYIRHIIALPGTRSAGSAGDNIQMNGDCEITVFVHETGHSLDSHAFDPKYGAPFSNSKVWLDNYNQDSAVCDGYAQSSQQENLAQETVVGLFDKVVPGGVGTIQPNWKAIFHQYATVQGYLGDQILPGGTCSHRLTNSKPVPMGDSKKSRRGLGPAPDVSLSAHVTEIEPIAMGDSIVLTQYNDGGDAISKREVTLN : reported Relative late peak area (reverse phase chromatography, 24 h) = 0.65

Record summary for IFF21363 (protein) QLDKPVIDPEFPSGALDQGLNDHLRAPGSSWDAWEEGWIPEDCKNMIEGTEFSVQDITPFNIHYDDCEDPWVFCRHKDSPLSEDYIVDAFGKMPVRFRSFVRHMLFVPGTESAGSSGDNVQMNGDLPITVFIHETAHSFDGHHGLPDIEGGFSASQAWLDAYNADSAVTDDYGQTSQAENFAQQTVVALFDSNVPDGVASIQPSWQSIENQFRLIQDRAADILRPDGTCTSRLENSAPVEKGGSARLRPSASTKPDVSLKGKIKVIEPVPMGAEMEMAQYDASGKVVGTKVVKVGGRE : reported Relative late peak area (reverse phase chromatography, 24 h) = 0.3

Record summary for IFF21333 (protein) RLDKPIINPTFPGGGLDSLAQGLLDHLAPTQSTHDNWGAGYIPEDCKNLAKSNGFSPFDITPFNIHYSDCNDVWIFCRHKDSPLSQIDMIDLFGRMPVHMREYIRHVIALPGNKSAGSSGDNIQMNGAVGITVFVHETGHSLDSHGFDPKYGVPFSNSKTWLDNYNMDTAVCDSYAQSSQQENLAQETVVGLYDKVVPGGVGNIQPNWKAIFHQYATVQGYLGDILTPGGTCRHRLANSKPVPMGDSAKFRRDLGPAPDVSLSSDVIEIESIPMGSSIRITEFDEAGNPIGSKNVSLVM : reported Relative late peak area (reverse phase chromatography, 24 h) = 0.59

Record summary for IFF21353 (protein) NLDKPVIQPNFPSLAPGLMSHLAPTHSTWDDWGAGWIPQDCKSMVQGAGFSPNDIIPFNIHYDDCGQTWTFCRHKNSPLSELQILDMFGRLPVRMRSFVRHLVFVPGNRSAGSNGDNILVVGDGDITLFAHEIGHSLDSHAFDPSYGVPFSTGNVWVSNYNLDSAVSDSYAQTSQQENFAQETVISLFDKVVPGGIGTIQPNWQAIFHQYATLQGYIGNVIIPGGTCTHRLTDSPPVPMSGSAKSRRGLGPKPEVSLSPEVKEIEAIPMESSITMTSFDEHGKPNGTYVIHLK : reported Relative late peak area (reverse phase chromatography, 24 h) = 0.25

Record summary for IFF21365 (protein) DDTLSKPALTDNLDYLLDGNVASLPSNGGPYWGKWEDGLMPADCKSIAEDQGLNPTDFEVWDIFFDDCQDGWSFCRHKDSADSFETLVDTFGRVPVRMRSWVRHVLTIPGDNWAFNSNGNICFSGTTSQNLDVALHETGHSLDLLGAYGDGALSSSQEWLDAYNADSNVPDNYARSNQVENVAQNTVVAVYDKNVPGGFPGVQTDYAKIQNQYTLVEDKAGDQIVPGGTCDRHLENSETVPMSGSSAKRDIRIKGRAVGAGAVTHDWKFKGTYSNIVTDFEPFNSKDFHH : reported Relative late peak area (reverse phase chromatography, 24 h) = 0.61
